Ref: patent US20250115603A1

Experiment: Solubility measurement at 50° C. (HPLC of saturated solution)
Type: physicochemical
Conditions: iso-propanol (IPA), 50 °C, organic solvent or mixture; by visual assessment
Where a name gives a salt, the structure may show the parent alone.
reported_metric: solubility

Measured solubility, Cc1nc2c(F)c(-c3cccc(Cl)c3Cl)c(CCC#N)cc2c2c1cc(C1CC3C[C@H]3N1C(=O)C1CC1)n2C1[C@H]2CN[C@@H]1C2 (atropisomer, axis not shown; (Ra)) [Compound 1 HCl, monohydrochloride dihydrate] : > 50 mg/mL

----------
Assay: Solubility measurement at 25° C. (HPLC of saturated solution)
Type: physicochemical
Details: heptane, 25 °C, organic solvent or mixture
Counter-ions that a name gives are not always drawn.
reported_metric: solubility (µg/mL)
# value in µg/mL; strip the unit string

Measured solubility, Cc1nc2c(F)c(-c3cccc(Cl)c3Cl)c(CCC#N)cc2c2c1cc(C1CC3C[C@H]3N1C(=O)C1CC1)n2C1[C@H]2CN[C@@H]1C2 (atropisomer, axis not shown; (Ra)) [Compound 1 HCl, monohydrochloride dihydrate] : 10
